Test: Test B: Cytotoxicity Assay (protocol of Test A, uninfected cells)
Type: cell-based
Settings: human, uninfected MT-4 cells, CellTiter-Glo
I'd appreciate it if you marked entries yes (1) when CC50 at 5 days is lower than 20 µM and no (0) when it is not.

Record excerpt, results attached:
INSERT INTO assay_data (molecule, class_label) VALUES
  ('Cn1nc(NS(C)(=O)=O)c2cccc(-c3ccc(N4CC(C)(O)C4)nc3[C@H](Cc3cc(F)cc(F)c3)NC(=O)Cn3nc(C(F)F)c4c3C(F)(F)[C@@H]3C[C@H]43)c21 [Compound 42K]', 'yes (1)'),
  ('Cn1nc(NS(C)(=O)=O)c2cccc(-c3cc(N)cnc3[C@H](Cc3cc(F)cc(F)c3)NC(=O)Cn3nc(C(F)(F)F)c4c3C(F)(F)[C@@H]3C[C@H]43)c21 [Compound 35]', 'no (0)'),
  ('Cn1nc(NS(C)(=O)=O)c2cccc(-c3cnc(N4CC5(COC5)C4)nc3[C@H](Cc3cc(F)cc(F)c3)NC(=O)Cn3nc(C(F)(F)F)c4c3C(F)(F)[C@@H]3C[C@H]43)c21 [Compound 37]', 'no (0)'),
  ('NC(=O)c1cc(-c2cc(N3C(=O)c4ccccc4C3=O)cnc2[C@H](Cc2cc(F)cc(F)c2)NC(=O)Cn2nc(C(F)F)c3c2C(F)(F)CCC3(F)F)ccc1F [Compound 32]', 'no (0)'),
  ('CN(CCO)c1ccc(-c2ccc(Cl)c3c(NS(C)(=O)=O)nn(C)c23)c([C@H](Cc2cc(F)cc(F)c2)NC(=O)Cn2nc(C(F)(F)F)c3c2C(F)(F)[C@@H]2C[C@H]32)n1 [Compound 58]', 'yes (1)');

Find out if reported CC50 at 5 days for CC(=O)Nc1cc(-c2ccc(Cl)c3c(NS(C)(=O)=O)nn(C)c23)c([C@H](Cc2cc(F)cc(F)c2)NC(=O)Cn2nc(C(F)F)c3c2C(F)(F)[C@@H]2C[C@H]32)nc1C [Compound 48] is less than 20 µM no (0)

A record lists Cn1nc(NS(C)(=O)=O)c2c(Cl)ccc(-c3cc(N)c(Cl)nc3[C@H](Cc3cc(F)cc(F)c3)NC(=O)Cn3nc(C(F)(F)F)c4c3C(F)(F)[C@@H]3C[C@H]43)c21 [Compound 54] . Is its CC50 at 5 days below 20 µM? yes (1)

is_below(CC50 at 5 days, 20 µM) for Cc1c(-c2cc(N)cnc2[C@H](Cc2cc(F)cc(F)c2)NC(=O)Cn2nc(C(F)(F)F)c3c2C(F)(F)[C@@H]2C[C@H]32)ccc2n[nH]c(=O)n12 [Compound 34] ? no (0)

Bench note: check whether Cn1nc(NS(C)(=O)=O)c2c(Cl)ccc(-c3nc(N)cnc3C(Cc3cc(F)cc(F)c3)NC(=O)Cn3nc(C(F)F)c4c3C(F)(F)[C@@H]3C[C@H]43)c21 (stereo partly shown) [Compound 59D] shows CC50 at 5 days below 20 µM no (0)

Criterion: CC50 at 5 days strictly below 20 µM. Is it met by Cn1nc(NS(C)(=O)=O)c2c(Cl)ccc(-c3cc(N)c(Cl)nc3[C@H](Cc3cc(F)cc(F)c3)NC(=O)Cn3nc(C(F)F)c4c3C(F)(F)[C@@H]3C[C@H]43)c21 [Compound 53B] ? yes (1)

The values you see were collected from patent US9050344B2.
